meta.source: PubChem BioAssay AID696

# assayed system: Alkaline phosphatase, placental type (Homo sapiens)
# test description: activation of human placental alkaline phosphatase – biochemical, luminescence, HTS (AID 696)
# particulars: purified PLAP enzyme, luminescent substrate read-out; at 20 µM
Screen size: about 96,000 compounds; about 1,200 (1.2%) were called active. Cut-off read from the data, not from the text of the source: active = activation fold above about 2; inactive = the rest. This excerpt belongs to a sample that is enriched for actives.
Answer with one of the outcomes active, inactive

INSERT INTO assay_data (compound, qualitative_label) VALUES
  ('Cc1nnc(NC(=O)CCCOc2ccccc2)s1', 'inactive');

Outcome? NC(CSC12CC3CC(CC(C3)C1)C2)C(=O)O (stereo unspecified) active

Test call, this compound: `COc1ccccc1NS(=O)(=O)N(C)C` inactive

Answer briefly: the call reported for `CN1/C(=c2/s/c(=C3/C(=O)N(c4ccccc4)NC3=Nc3ccccc3)n(C)c2=O)C(C)(C)c2ccccc21` in this assay. inactive

# lookup: test call for `COc1ccc2c(CC(=O)Nc3nnc(C4CC4)s3)coc2c1` inactive

Tell me the assay call for `Cc1occc1C(=O)Nc1nnc(C2CCCCC2)s1` please. inactive

Each compound tested received a call. Report the one for `N#C/C(=C(\O)CCl)c1nnc2n1CCCCC2` . inactive

I'd appreciate the recorded outcome for `O=C(Nc1nnc(C2CC2)s1)c1ccccn1` from this test. active

Hello, I am checking results. What call was entered for `O=c1cc(N2CCN(Cc3ccccc3)CC2)c(-c2ccccc2)n[nH]1` ? inactive

What call does the record list for COc1ccc(NC(=O)C(CC(C)C)NS(=O)(=O)c2ccc3c(c2)CCN3C(C)=O)cc1OC (stereo unspecified) ? inactive

// outcome(item) with item = `COCCn1c(C)cc(C2=NNC(=Nc3ccc(F)cc3)SC2)c1C` inactive

* * *

Property: activation fold; scope: individual compounds
# assayed system: Alkaline phosphatase, placental type (Homo sapiens)
# test description: activation of human placental alkaline phosphatase – biochemical, luminescence, HTS (AID 696)
# particulars: purified PLAP enzyme, luminescent substrate read-out; at 20 µM; hits give high values
Out of some 96,000 compounds screened, about 1,200 (1.2%) were called active. What follows is part of a selection rich in actives, with near analogues and random picks from the rest.
Keep it simple and answer with nothing but the number.

The examples below pair each entry with its known result.
INSERT INTO results (compound, recorded_measurement) VALUES
  ('Cn1c(N)c(C(=O)COC(=O)C23CC4CC(CC(C4)C2)C3)c(=O)n(C)c1=O', 1.9),
  ('CCOC(=O)c1nnn(-c2nonc2-n2cccc2)c1CN1CCC(C(=O)OCC)CC1', 1.2),
  ('O=C(CSCc1ccccc1)N1CCc2ccccc21', 0.7),
  ('O=C(Nc1nnc(SCc2ccc(Cl)cc2Cl)s1)C1COc2ccccc2O1 (stereo unspecified)', 1.1),
  ('Cc1cccc(N2CCN(S(=O)(=O)c3ccc4[nH]c(=O)c(=O)[nH]c4c3)CC2C)c1 (stereo unspecified)', 2.2);

The recorded activation fold for entry `O=C(COc1ccc(Cl)cc1)N1CCN(S(=O)(=O)c2ccc(Cl)cc2)CC1` equals 1.1

The recorded activation fold for entry `Cc1cccc(NC(=S)Nc2ccc(Br)cc2)c1` equals 1.2

Noted for CN(C)C(CNC(=O)CCCOc1ccccc1)c1ccco1 (stereo unspecified) : its activation fold reads 2

Memo: `c1ccc(CCc2nc(-c3ccncc3)no2)cc1` , reported activation fold: 0.9

Entry CC1(C)CC(=O)C2=C(C1)N=C1SCCC(=O)N1C2c1ccc(C(F)(F)F)cc1 (stereo unspecified) ; activation fold = 1.2

Note to self: activation fold recorded for `COc1ccc(C)cc1S(=O)(=O)NCCc1ccccc1` was 0.8

* * *

# assayed system: Alkaline phosphatase, placental type (Homo sapiens) (UniProt P05187)
# Sequence (P05187 whole entry, looked up): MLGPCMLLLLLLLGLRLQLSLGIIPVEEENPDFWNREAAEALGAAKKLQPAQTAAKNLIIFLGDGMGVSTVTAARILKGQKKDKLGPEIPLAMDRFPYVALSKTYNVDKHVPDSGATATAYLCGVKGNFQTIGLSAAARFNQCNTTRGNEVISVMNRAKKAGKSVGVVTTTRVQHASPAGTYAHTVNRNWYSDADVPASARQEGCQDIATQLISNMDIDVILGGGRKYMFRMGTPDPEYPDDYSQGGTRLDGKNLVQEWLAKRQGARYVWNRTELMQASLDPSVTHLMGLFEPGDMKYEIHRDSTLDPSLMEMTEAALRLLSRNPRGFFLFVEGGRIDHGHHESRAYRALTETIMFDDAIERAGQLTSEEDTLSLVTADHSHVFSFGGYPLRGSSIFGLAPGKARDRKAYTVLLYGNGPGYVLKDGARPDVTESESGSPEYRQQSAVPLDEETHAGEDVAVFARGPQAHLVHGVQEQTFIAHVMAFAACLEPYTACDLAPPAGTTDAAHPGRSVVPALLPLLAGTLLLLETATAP
# test description: activation of human placental alkaline phosphatase – biochemical, luminescence, HTS (AID 696)
# particulars: purified PLAP enzyme, luminescent substrate read-out; at 20 µM
The whole screen tested about 96,000 compounds, of which about 1,200 (1.2%) were called active. No stated cut-off is given here; in the data, active means activation fold above about 2; inactive means the rest. The list comes from a sample in which actives are over-represented; it also holds close analogues and randomly drawn compounds.
Field 'call' accepts Y for active, N for inactive

Example cases with answers are listed next.
INSERT INTO measurements (compound, qualitative_label) VALUES
  ('COc1ccc(CC(=O)Nc2nc3n(n2)C(c2ccccc2)CC(=O)N3)cc1OC (centres undefined)', 'N'),
  ('CC1CC(c2ccccc2)n2nc(NC(=O)c3cccs3)nc2N1 (centres undefined)', 'Y'),
  ('CO/N=C(/CS(=O)(=O)c1ccc(Br)cc1)c1ccc(OC)cc1', 'N');

Now examine the next entry.
// outcome(item) with item = `O=C(NCc1ccco1)c1ccc(Cn2c(=O)c3sccc3n(Cc3ccc(F)cc3)c2=O)cc1` N

* * *

Recorded activation fold for the following compounds
# assayed system: Alkaline phosphatase, placental type (Homo sapiens) (UniProt P05187)
# test description: activation of human placental alkaline phosphatase – biochemical, luminescence, HTS (AID 696)
# particulars: purified PLAP enzyme, luminescent substrate read-out; at 20 µM; hits give high values
Screen size: about 96,000 compounds; about 1,200 (1.2%) were called active. The entries come from a sample that favours actives as a whole.
Form: value (number only, do not type unit).

INSERT INTO assay_data (compound, observed_property, recorded_measurement) VALUES
  ('Cc1c(CCO)c(=O)[nH]n1C(=O)c1c(F)cccc1F', 'activation fold', 0.9),
  ('Cc1cc(/C=C2/SC(=O)N(CC(=O)OC(C)C)C2=O)c(C)n1C', 'activation fold', 1),
  ('Cc1csc(OCC(=O)Nc2ccc(C)c(C)c2)n1', 'activation fold', 1.2),
  ('COc1ccc(C(C)=O)cc1CN1C(=O)NC2(CCCCC2C)C1=O (stereo unspecified)', 'activation fold', 1),
  ('COc1ccc(OC)c(NC(=O)CN2CCN(C(=O)c3ccco3)CC2)c1', 'activation fold', 1.2),
  ('O=c1c2ccccc2nc(CSc2nnnn2-c2ccccc2)n1-c1ccccc1', 'activation fold', 0.9),
  ('C=CCn1c(SCc2c(C)noc2C)nc2sc3c(c2c1=O)CCC(C)C3 (stereo unspecified)', 'activation fold', 1.4),
  ('COc1cccc(OCc2cc(/C=N/NC(=O)c3nc(Cl)c(Cl)c(N)c3Cl)ccc2OC)c1', 'activation fold', 1.5);

The compound identified as `Cc1cccc(N(CC(=O)N2CCOCC2)S(C)(=O)=O)c1` registered its activation fold at 0.8

So, `COc1ccc(NC(C)=O)cc1NC(=O)CN1CCN(C2c3ccccc3-c3ccccc32)CC1` ? Its activation fold was 2.8

Form field activation fold, entry CC(Oc1ccc(F)cc1F)C(=O)/C=C/N(C)C (stereo unspecified) : 1.2

* * *

# assayed system: Alkaline phosphatase, placental type (Homo sapiens)
# test description: activation of human placental alkaline phosphatase – biochemical, luminescence, HTS (AID 696)
# particulars: purified PLAP enzyme, luminescent substrate read-out; at 20 µM; hits give high values
In all, about 96,000 compounds went through this assay and about 1,200 (1.2%) were called active. For the sample, actives were picked, then their nearest neighbours and some compounds at random.
Listing: activation fold of selected compounds
Answer with a bare number; do not write a unit.

Reference set, count: 5
INSERT INTO measurements (compound, recorded_measurement) VALUES
  ('CCn1c(Cc2cccs2)nnc1SCC(=O)c1ccc(C)cc1', 1.5),
  ('C/C(=N\NC(=O)Cc1ccc(Cl)cc1)c1ccccn1', 1.8),
  ('CCCC(=O)Nc1cc(OCC)c(NC(=O)NC2CCCCC2)cc1OCC', 0.9),
  ('COc1ccc(C2=NOC3(CC(=O)N(c4ccc(C)cc4)C3=O)C2)cc1 (stereo unspecified)', 1.2),
  ('CC1CCCN(C(C(=O)Nc2ccc(C(C)C)cc2)c2ccc3c(c2)OCO3)C1 (stereo unspecified)', 1.6);

Record `O=C(CN1CCN(c2ccccn2)CC1)NC1CCCCC1` , field activation fold: 1.1

Measured activation fold of `O=C(CN1C(=O)CC(c2ccccc2)=Nc2ccccc21)NC1CCCCC1` : 1

Summary for this compound, `COC(=O)CSc1snnc1-c1ccc(Cl)c(Cl)c1` : activation fold is 1

Field activation fold (entry CCCCCCCC(=O)NC(Nc1ccccc1OC)C(Cl)(Cl)Cl (stereo unspecified) ) reads 0.9

Record `COc1ccccc1C(=O)Nc1nc2nc(-c3ccccc3)cc(=O)n2[nH]1` , field activation fold: 1.1

The compound listed as `Cc1noc(C)c1C(=O)N(CC(=O)NC1CCCC1)Cc1ccccc1F` has a reported activation fold of 1

* * *

# assayed system: Alkaline phosphatase, placental type (Homo sapiens) (UniProt P05187)
# test description: activation of human placental alkaline phosphatase – biochemical, luminescence, HTS (AID 696)
# particulars: purified PLAP enzyme, luminescent substrate read-out; at 20 µM; hits give high values
The whole screen tested about 96,000 compounds, of which about 1,200 (1.2%) were called active. The sample as a whole holds a higher share of actives than the screen did.
Label label 0 if activation fold falls below 1; label label 1 in every other case.

Example entries and their recorded answers appear below.
INSERT INTO assay_data (compound, qualitative_label) VALUES
  ('CCOc1ccc(C(CCc2ccccc2)NC(=O)c2ccc(OC)c(OC)c2)cc1OCC (configuration not stated)', 'label 1'),
  ('CN(Cc1nc2ccccc2c(=O)[nH]1)Cc1cc(=O)oc2ccc3ccccc3c12', 'label 1'),
  ('O=C(CSc1nnc(-c2ccco2)o1)NCC(=O)c1ccccc1', 'label 1');

Does activation fold meet or surpass 1 for O=C(CN1C(=O)C2C3C=CC(C3)C2C1=O)Nc1nc(-c2ccccn2)cs1 (configuration not stated) ? label 1

Could you verify whether the entry `CC(C)NS(=O)(=O)c1ccc(OCC(=O)Nc2ccc3c(c2)OCCO3)cc1` shows activation fold of no less than 1? label 0

Evaluate CC1=NN(C(=O)Cc2ccc(C)cc2)C(O)(c2cccnc2)C1 (configuration not stated) : activation fold at minimum 1? label 1

Record `O=C(Nc1ccc2ccccc2c1)Nc1ccc2snnc2c1` ; criterion: activation fold no lower than 1. Met? label 0

Can `Cc1nn(C)cc1C(=O)NNC(=S)Nc1ccc(Cl)cc1` be said to have activation fold at or above 1? label 1

Can Cc1ccc(S(=O)(=O)C(C#N)c2nc3ccccc3nc2N2CCCC2)cc1C (configuration not stated) be said to have activation fold at or above 1? label 1

Threshold query (activation fold >= 1) on `O=C(COC(=O)c1n[nH]c2ccccc12)NCc1ccccc1` label 1

Hi, just wondering whether `CCC(C)(C)c1ccc(Oc2ccc(NC(=O)COC(=O)C3=COCCO3)cc2)cc1` shows activation fold of 1 or higher. label 1

Say whether `Cc1occc1C(=O)NNC(=S)NCC(C)C` shows activation fold of 1 or more. label 1

Decide: activation fold of `COc1ccc(Cl)cc1C(=O)NCc1cn(C)nc1C` >= 1? label 1

// inclusive: activation fold at least 1? input: COC(=O)C(C)n1cnc2c(nnn2-c2cccc(Cl)c2)c1=O (configuration not stated) label 0
